ASSAY OVERVIEW: basal RPMI8226 mitochondrial membrane potential changes, profiling panel, cell-based, JC-1 fluorescence, 24 h, 100 nL compound (AID 1169); also: test concentration not given here
SETTINGS: RPMI8226 myeloma, JC-1 mitochondrial potential fluorescence, higher = more signal
ENDPOINT: z-score
Just the number.

{"COMPOUND": "COc1cc2c(cc1OC)CN(C(=O)[C@H]1[C@@H]3C(=O)O[C@@H](c4ccccc4)[C@@H](c4ccccc4)N3[C@@H](c3ccccc3OCCO)[C@]13C(=O)Nc1ccc(C#CC4(O)CCCCCC4)cc13)CC2", "VAL": -0.812}
{"COMPOUND": "CCOC(=O)C1=CC[C@@H](c2ccccc2)N(S(=O)(=O)c2ccc(C)cc2)[C@H]1C", "VAL": -0.198}
{"COMPOUND": "CO[C@@H]1COC(=O)CC=C[C@@H](C)[C@H](OC)COC(=O)CC=C[C@H]1C", "VAL": -0.793}

Exercise: Consider the compound `CCC(=O)[C@]12O[C@@]3([C@@H]4C(=O)OCC[C@@H]41)N(CC)C(C)=C(C(=O)OC)[C@@H](c1ccccc1)N3C2=O` and give its measured z-score.
Solution: -0.537

Exercise: Follow-up entry: C=CC[C@]1(C(=O)NCC(O)CO)N=C(c2ccc(OCCCO)cc2)O[C@H]1c1ccccc1 (stereo partly drawn)
Solution: -0.895

Exercise: Follow-up entry: `O=C(CS)NCCCCCCNC(=O)[C@@H]1C[C@@H]2C(=O)N[C@@H](Cc3ccccc3)C(=O)N2[C@@H]1c1ccc(O)cc1`
Solution: -0.208

Exercise: Follow-up entry: `CCOC(=O)[C@H]1C/C=C/C[C@H](C(=O)OCC)C(=O)O[C@H]2[C@@H](OC)O[C@H](CO)[C@@H](OC(=O)Nc3ccc(Br)cc3)[C@@H]2OC1=O`
Solution: -0.948

Exercise: Follow-up entry: `O=C(N1CCCCC1)[C@@]1(CCS(=O)(=O)c2ccccc2)N=C(c2ccc(OCCCO)cc2)O[C@H]1c1ccccc1`
Solution: -0.72

----------
ASSAY OVERVIEW: basal 3T3-L1 adipocyte mitochondrial potential changes, profiling panel, cell-based, JC-1 fluorescence, 3T3-L1 adipocytes, 24 h, 100 nL compound (AID 1168); also: test concentration not given here
SETTINGS: JC-1 mitochondrial fluorescence, higher = more signal, called active from +8 up or from −8 down
Calls of active or inactive are those of the source.
ENDPOINT: z-score

Known z-score results, listed for orientation:
{"COMPOUND": "CC(C)(C)OC(=O)CC[C@]1(C(=O)NCCN2CCOCC2)N=C(c2ccc(OCCCO)cc2)O[C@H]1c1ccccc1CN=[N+]=[N-]", "ENDPOINT": "z-score", "VAL": "0.289 (inactive)"}
{"COMPOUND": "C=CC(=O)O[C@@H](Cc1ccccc1)[C@H]1C2C=CCCC=C2CN1Cc1cccc(Cl)c1 (stereo partly drawn)", "ENDPOINT": "z-score", "VAL": "0.0156 (inactive)"}

Exercise: Consider the compound `C=C(COC)/C(=C/C[C@@H](OC(C)=O)c1cccc(OCCO)c1)c1cc(C(=O)OC)ccc1OC` and give its measured z-score.
Solution: 1.2 (inactive)

----------
SYSTEM TESTED: Neurogenic locus notch homolog protein 3 (Homo sapiens)
ASSAY OVERVIEW: NOTCH3 binders on small-molecule microarray, primary screen, biochemical, 635/667 nm fluorescence (AID 1096)
SETTINGS: NOTCH3 binding, 635 nm fluorescence, higher = more signal
Rule: composite z-score under 0.8 gives NO, otherwise YES.

{"COMPOUND": "CCC(=O)[C@]12O[C@@]3([C@@H]4C(=O)OCC[C@@H]41)N(Cc1ccccc1)C(C)=C(C(=O)OC)[C@@H](c1ccccc1)N3C2=O", "SYSTEM TESTED": "Neurogenic locus notch homolog protein 3 (Homo sapiens)", "CLASS": "NO"}
{"COMPOUND": "O=C1c2ccccc2[C@](Cc2ccccc2I)(C(=O)NCC(F)(F)F)[C@H](c2ccc(CO)cc2)N1Cc1ccccc1C(F)(F)F", "SYSTEM TESTED": "Neurogenic locus notch homolog protein 3 (Homo sapiens)", "CLASS": "YES"}
{"COMPOUND": "COCCOC(=O)N1C(=O)[C@@]2(c3cc(C#CCNC(N)=O)ccc31)[C@H](C(=O)N1CCCCCCC1)[C@H]1C(=O)O[C@H](c3ccccc3)[C@H](c3ccccc3)N1[C@@H]2c1ccccc1OCCO", "SYSTEM TESTED": "Neurogenic locus notch homolog protein 3 (Homo sapiens)", "CLASS": "YES"}
{"COMPOUND": "CN1C(=O)C2C=CC(C(O)C3CC=CCC3)N(Nc3ccccc3)C2C1=O (stereo unspecified)", "SYSTEM TESTED": "Neurogenic locus notch homolog protein 3 (Homo sapiens)", "CLASS": "YES"}

Exercise: Decide: composite z-score of `CCN1C(C)=C(C(=O)OC)[C@@H](c2ccccc2)N2C(=O)[C@@]3(C(=O)OC)O[C@@]12[C@@H]1C(=O)CCC[C@@H]13` >= 0.8?
Solution: NO

Exercise: Follow-up entry: O=C1OCCC=C[C@H]2OC34C=CCN(Cc5ccccc5)C(=O)[C@H]3N(CCO)C(=O)[C@@H]4C12 (stereo partly specified)
Solution: NO

Exercise: Follow-up entry: COC(=O)c1ccc(C#CC(NP(=O)(c2ccccc2)c2ccccc2)c2ccccc2)cc1 (stereo unspecified)
Solution: YES

Exercise: Follow-up entry: `COc1cccc([C@@H]2[C@@H](C)CC[C@H]3C(=O)N(C)[C@@H](C(C)C)C(=O)N23)c1`
Solution: NO

Exercise: Follow-up entry: `CCc1cccc(NC(=O)O[C@H]2[C@H](OC(=O)Nc3ccccc3)[C@@H](OC(=O)Nc3ccccc3)[C@@H](OC)O[C@@H]2CO)c1`
Solution: YES

Exercise: Follow-up entry: `CO[C@H]1COC(=O)[C@H](Cc2ccccc2)NC(=O)CC=C[C@@H](C)[C@H](OC)COC(=O)CC=C[C@@H]1C`
Solution: NO

Exercise: Follow-up entry: `Cc1ccc(S(=O)(=O)c2cc3oc2CC[C@@H](CO)NC(=O)N(C)Cc2cn(nn2)C[C@H](Cc2ccccc2)NC3=O)cc1`
Solution: NO

Exercise: Follow-up entry: COc1ccc(C(O)C2C=CC3C(=O)N(C)C(=O)C3N2N2CCCCC2)cc1OCc1ccccc1 (stereo unspecified)
Solution: YES

Exercise: Follow-up entry: `C[N+](C)(C)CCCCNC(=O)[C@@H]1C[C@@H]2C(=O)N3CCC[C@H]3C(=O)N2[C@@H]1c1cccc(OCCO)c1`
Solution: NO

Exercise: Follow-up entry: `C=C[C@H](OC)[C@@H](OC(=O)Nc1ccc(SC)cc1)c1ccc(OC)c(O)c1`
Solution: NO

Exercise: Follow-up entry: `O=C1C[C@@](C(=O)NC2CC2)(c2ccc([N+](=O)[O-])cc2)[C@@H](c2ccc(CO)cc2I)N1CC12CC3CC(CC(C3)C1)C2`
Solution: YES

Exercise: Follow-up entry: `COCCCNC(=O)[C@@]1(c2ccc([N+](=O)[O-])cc2)CC(=O)N(C2CCCCC2)[C@@H]1c1ccc(CO)cc1`
Solution: NO

----------
SYSTEM TESTED: Neurogenic locus notch homolog protein 2 (Homo sapiens) (UniProt Q04721)
Sequence (Q04721 whole entry, looked up): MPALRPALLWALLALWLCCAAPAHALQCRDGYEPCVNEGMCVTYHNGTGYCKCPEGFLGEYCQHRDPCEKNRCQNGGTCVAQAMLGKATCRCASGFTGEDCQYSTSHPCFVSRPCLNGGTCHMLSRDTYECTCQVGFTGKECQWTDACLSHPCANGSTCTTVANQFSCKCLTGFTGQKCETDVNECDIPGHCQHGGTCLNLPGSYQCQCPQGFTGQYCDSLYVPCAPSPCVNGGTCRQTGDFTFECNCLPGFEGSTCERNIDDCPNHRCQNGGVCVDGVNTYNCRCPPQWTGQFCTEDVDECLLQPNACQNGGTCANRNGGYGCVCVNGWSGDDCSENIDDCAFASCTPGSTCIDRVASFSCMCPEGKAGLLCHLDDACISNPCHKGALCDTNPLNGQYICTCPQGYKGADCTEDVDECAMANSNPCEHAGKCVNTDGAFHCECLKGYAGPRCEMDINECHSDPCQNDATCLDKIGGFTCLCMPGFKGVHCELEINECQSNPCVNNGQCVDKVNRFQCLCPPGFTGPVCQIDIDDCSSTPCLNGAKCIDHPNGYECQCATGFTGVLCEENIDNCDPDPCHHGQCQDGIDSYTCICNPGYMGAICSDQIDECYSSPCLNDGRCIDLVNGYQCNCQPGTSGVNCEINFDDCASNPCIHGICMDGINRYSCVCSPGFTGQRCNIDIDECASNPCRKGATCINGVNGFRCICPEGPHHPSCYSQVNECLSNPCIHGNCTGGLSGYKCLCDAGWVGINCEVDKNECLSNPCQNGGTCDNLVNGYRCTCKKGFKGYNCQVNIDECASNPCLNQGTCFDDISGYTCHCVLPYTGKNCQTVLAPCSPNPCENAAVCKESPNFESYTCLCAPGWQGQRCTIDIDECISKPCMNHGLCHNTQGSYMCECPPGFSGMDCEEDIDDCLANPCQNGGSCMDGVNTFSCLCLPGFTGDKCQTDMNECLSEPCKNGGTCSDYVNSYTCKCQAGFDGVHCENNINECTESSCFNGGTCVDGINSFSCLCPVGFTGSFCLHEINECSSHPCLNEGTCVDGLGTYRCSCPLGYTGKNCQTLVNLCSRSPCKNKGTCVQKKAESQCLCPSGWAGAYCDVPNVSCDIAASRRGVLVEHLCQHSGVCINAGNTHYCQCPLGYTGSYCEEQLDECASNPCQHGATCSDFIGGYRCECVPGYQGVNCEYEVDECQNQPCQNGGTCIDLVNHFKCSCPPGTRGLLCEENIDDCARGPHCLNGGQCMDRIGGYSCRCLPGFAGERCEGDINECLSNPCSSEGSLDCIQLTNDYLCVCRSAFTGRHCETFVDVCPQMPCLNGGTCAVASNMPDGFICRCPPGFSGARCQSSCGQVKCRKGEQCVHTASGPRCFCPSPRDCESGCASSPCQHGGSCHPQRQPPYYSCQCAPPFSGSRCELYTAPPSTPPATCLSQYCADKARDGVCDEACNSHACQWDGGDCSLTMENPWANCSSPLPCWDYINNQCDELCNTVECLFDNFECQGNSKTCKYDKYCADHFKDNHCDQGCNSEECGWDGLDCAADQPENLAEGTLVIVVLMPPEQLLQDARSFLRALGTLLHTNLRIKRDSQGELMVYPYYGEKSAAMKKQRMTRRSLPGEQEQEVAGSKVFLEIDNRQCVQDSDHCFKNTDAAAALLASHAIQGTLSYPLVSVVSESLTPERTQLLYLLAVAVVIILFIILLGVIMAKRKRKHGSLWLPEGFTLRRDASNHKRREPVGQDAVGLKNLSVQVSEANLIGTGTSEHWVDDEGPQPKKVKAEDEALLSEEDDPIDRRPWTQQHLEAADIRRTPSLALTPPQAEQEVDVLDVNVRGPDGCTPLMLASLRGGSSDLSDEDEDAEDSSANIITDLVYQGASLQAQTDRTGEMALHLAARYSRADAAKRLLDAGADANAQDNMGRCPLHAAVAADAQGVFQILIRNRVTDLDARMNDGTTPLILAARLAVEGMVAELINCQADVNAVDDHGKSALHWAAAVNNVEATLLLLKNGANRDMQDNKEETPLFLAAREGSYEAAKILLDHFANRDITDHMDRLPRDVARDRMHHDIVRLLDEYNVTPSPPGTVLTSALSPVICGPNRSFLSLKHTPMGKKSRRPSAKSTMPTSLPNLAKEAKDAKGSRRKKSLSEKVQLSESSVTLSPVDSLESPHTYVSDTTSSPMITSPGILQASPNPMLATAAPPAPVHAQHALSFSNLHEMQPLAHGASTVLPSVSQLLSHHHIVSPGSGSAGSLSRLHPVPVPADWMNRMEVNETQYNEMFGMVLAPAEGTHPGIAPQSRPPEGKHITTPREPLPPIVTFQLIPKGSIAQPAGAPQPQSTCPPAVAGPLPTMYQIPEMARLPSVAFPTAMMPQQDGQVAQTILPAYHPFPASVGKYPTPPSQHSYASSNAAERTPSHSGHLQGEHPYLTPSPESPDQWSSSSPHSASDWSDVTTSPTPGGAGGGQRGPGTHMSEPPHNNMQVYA
ASSAY OVERVIEW: Notch2 binders on small-molecule microarrays, primary screen, biochemical, small-molecule microarray, 635 nm fluorescence, stem cell growth factors (AID 1073)
SETTINGS: Notch2 binding, higher = more signal
Rule: composite z-score under 1 gives 0.0, otherwise 1.0.

Consider the following illustrative entries.
{"COMPOUND": "C[C@]1(C(=O)NCCN2CCOCC2)c2ccccc2C(=O)N(Cc2ccccc2)[C@H]1c1ccc(CO)cc1", "CLASS": 0.0}
{"COMPOUND": "O=C1C[C@@](C(=O)NC2CC2)(c2ccc([N+](=O)[O-])cc2)[C@@H](c2ccc(CO)cc2I)N1CC12CC3CC(CC(C3)C1)C2", "CLASS": 1.0}
{"COMPOUND": "N#Cc1ccc(NN2C(C(O)CCc3ccccc3)C=CC3C(=O)N(c4ccccc4)C(=O)C32)cc1 (stereo not given)", "CLASS": 1.0}

Exercise: Decide: composite z-score of `CCCCCCc1nc(C2CC2)c(C)c2c1[Si](C(C)C)(C(C)C)OC2` >= 1?
Solution: 0.0

Exercise: Follow-up entry: `COCCOC(=O)N1C(=O)[C@@]2(c3cc(C#CCC(C(=O)OC)C(=O)OC)ccc31)[C@H](c1ccccc1OCCO)N1[C@H](c3ccccc3)[C@H](c3ccccc3)OC(=O)[C@H]1[C@@H]2C(=O)N1CCCCCCC1`
Solution: 0.0

----------
SYSTEM TESTED: Alpha-bungarotoxin (Bungarus multicinctus)
ASSAY OVERVIEW: alpha-bungarotoxin binders on microarray, profiling panel, artefact control for SMM control protein annotation, biochemical, small-molecule microarray, Alexa647 label, 635/667 nm fluorescence (AID 1117)
SETTINGS: alpha-BTX-A647 binding fluorescence, higher = more signal
Attribute: composite z-score

Exercise: Consider the compound `CC(C)(C)OC(=O)CC[C@@]1(C(=O)NCc2ccccc2)N=C(c2ccc(OCCCO)cc2)O[C@@H]1c1ccccc1` and give its measured composite z-score.
Solution: 2.97

Exercise: Follow-up entry: `C=C(CCCC)/C(=C/C[C@H](OC(=O)c1ccncc1)c1cccc(OCCO)c1)c1cc(C(=O)OC)ccc1OC`
Solution: 0.582

Exercise: Follow-up entry: `CC(=O)NCCCC[C@@H]1NC(=O)[C@@H]2C[C@H](C(=O)NCc3ccc(F)cc3)[C@H](c3cccc(OCCO)c3)N2C1=O`
Solution: -0.86
